# key: entry, value: protein stability index
B1: CDC14A (parent)
chain: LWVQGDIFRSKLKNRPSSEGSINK

# Variants of: B1
# Method summary: protein stability index of a GFP-peptide fusion (GPS, HEK-293T) (PSI 1-6); higher = more stable;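 also: lentivirally expressed fusions sorted by FACS into six bins by GFP to DsRed ratio, PSI derived from sequencing read proportions per bin multiplied by bin number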
# Experimental context: c terminus: a fixed tail appended
Measured quantity: protein stability index

INSERT INTO measurements (mutations, reading) VALUES
  ('F8G', 3.01),
  ('N14M', 2),
  ('L12K', 3.16),
  ('K13T', 2.7),
  ('S21T', 3.13),
  ('K24Y', 1.73),
  ('N14F', 2.48),
  ('N23S', 2.96),
  ('K24W', 2.47),
  ('S18L', 3.55),
  ('S17Q', 2.05),
  ('Q4F', 1.73),
  ('I7D', 3.35),
  ('G5K', 2.3),
  ('R15C', 2.54),
  ('E19V', 2.17),
  ('R9L', 2.35),
  ('I7T', 3.3),
  ('F8W', 2.51),
  ('G20Q', 2.61),
  ('R15A', 2.81),
  ('N14A', 2.6);
